test system: recombinant EBOV (Mayinga variant); assay type: cell-based, Ebola virus; conditions: read-out: Approximate EC50 against recombinant reporter EBOV variants
Measured Property: EC50

- Compound Structure String: "[N-]=[N+]=N[C@]1(CO)O[C@@H](n2ccc(N)nc2=O)[C@H](O)[C@@H]1O"
  Measured Property: "EC50"
  Result: "~2000 nM"
